target-or-test-system: KOR (Rattus norvegicus (Rat))
measurement-description: KOR agonist (cAMP) assay, CHO cells (commercial)
Format: cell-based
measurement-context: Table 5; CAMP Assay
experimental-readout: pEC50
Give bare numbers, as −log10 of the molar value.

INSERT INTO results (molecule, measured_value) VALUES
  ('CC1Cc2oc3ccc(O)cc3c2CCN1 (stereo not drawn) [drawing 173]', 7.22);

Could you now consider this next molecule?
Asked: Item Oc1ccc2oc3c(c2c1)CCN1CCCC3C1 (stereo not drawn) [drawing 175] : provide pEC50
Given back: 7.30

###

Can you tell me EC50 for the items I'm about to list?
target-or-test-system: 5-HT2C (Homo sapiens (Human))
Sequence (P28335 whole entry, looked up): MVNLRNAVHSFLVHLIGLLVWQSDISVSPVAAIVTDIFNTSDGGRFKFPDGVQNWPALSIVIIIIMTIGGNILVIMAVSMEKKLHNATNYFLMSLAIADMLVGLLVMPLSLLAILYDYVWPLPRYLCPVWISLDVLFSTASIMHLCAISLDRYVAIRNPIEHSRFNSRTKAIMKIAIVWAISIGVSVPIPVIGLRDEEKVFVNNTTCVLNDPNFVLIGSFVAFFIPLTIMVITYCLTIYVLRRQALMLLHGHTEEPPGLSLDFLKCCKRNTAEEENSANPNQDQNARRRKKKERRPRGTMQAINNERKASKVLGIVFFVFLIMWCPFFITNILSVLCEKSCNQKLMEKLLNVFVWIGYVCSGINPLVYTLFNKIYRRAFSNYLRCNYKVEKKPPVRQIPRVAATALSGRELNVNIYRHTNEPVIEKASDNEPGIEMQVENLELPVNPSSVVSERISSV
measurement-description: 5-HT2C agonist (IP1) assay, HEK-293 cells (commercial)
Assay type: cell-based
measurement-context: Table 4; IP1 agonist assay
One number for each entry, in nM.

INSERT INTO measurements (molecule, experimental_readout, measured_value) VALUES
  ('Oc1ccc2oc3c(c2c1)CCNCC3 [drawing 169]', 'EC50', 100);

Could you now consider this next molecule?
Asked: State EC50 (5-HT2C (Homo sapiens (Human))) of CC1Cc2oc3ccc(O)cc3c2CCN1 (stereo not drawn) [drawing 170] .
Given back: 400
